Biological target: UniProt:Q72547
Assay: Inhibition of RNase H activity of full length recombinant HIV1 reverse transcriptase assessed as reduction in RNA 5'-end directed cleavage using HTS3 substrate
Settings: read-out: IC50
Assay Readout: IC50 (µM)
Numbers only, in µM.

Consider the reported IC50 for these molecules:
O=c1cc(Nc2ccc(-c3ccc(O)cc3)cc2)[nH]c(=O)n1O = 0.37
COc1ccc(-c2cccc(Nc3cc(=O)n(O)c(=O)n3C)c2)c(OC)c1 = 4.2
O=c1cc(Nc2cccc(-c3ccc(F)cc3)c2)[nH]c(=O)n1O = 0.3

Field: IC50. Fill in for each record below.
1. Cn1c(Oc2cccc(-c3cccc(C#N)c3)c2)cc(=O)n(O)c1=O
2. Cc1ccc(-c2cccc(Nc3cc(=O)n(O)c(=O)n3C)c2)cc1
3. Cn1c(Oc2ccc(-c3ccc(C#N)cc3)cc2)cc(=O)n(O)c1=O

4.6
6.2
4.7

* * *

Biological target: Human immunodeficiency virus type 1 reverse transcriptase (Human immunodeficiency virus 1, UniProt Q72547)
Test: Inhibition of RNase H activity of full length recombinant HIV1 reverse transcriptase assessed as reduction in RNA 5'-end directed cleavage using HTS3 substrate
Conditions: read-out: IC50
Assay Readout: pIC50
Give bare numbers, as −log10 of the molar value.

COc1ccc(-c2cccc(Oc3cc(=O)n(O)c(=O)n3C)c2)cc1 = 5.33
COc1ccc(-c2cccc(Nc3cc(=O)n(O)c(=O)n3C)c2)cc1OC = 5.52
COc1ccc(-c2cccc(Nc3cc(=O)n(O)c(=O)[nH]3)c2)cc1 = 6.40

Field: pIC50. Fill in for each record below.
1. COc1ccccc1-c1cccc(Oc2cc(=O)n(O)c(=O)n2C)c1
2. Cn1c(Oc2cccc(-c3cccc(O)c3)c2)cc(=O)n(O)c1=O
3. COc1ccc(-c2ccccc2Oc2cc(=O)n(O)c(=O)n2C)cc1
4. COc1ccc(-c2ccc(Nc3cc(=O)n(O)c(=O)n3C)cc2)cc1

4.89
5.37
4.66
5.30

Field: pIC50. Fill in for each record below.
1. Cn1c(Oc2ccc(-c3ccc(Cl)cc3)cc2)cc(=O)n(O)c1=O
2. COc1cccc(OC)c1-c1cccc(Nc2cc(=O)n(O)c(=O)n2C)c1

4.96
5.35

Field: pIC50. Fill in for each record below.
1. O=c1cc(Nc2cccc(-c3ccc(Cl)cc3)c2)[nH]c(=O)n1O
2. COc1cccc(OC)c1-c1cccc(Nc2cc(=O)n(O)c(=O)[nH]2)c1

6.43
6.33

* * *

Target: Human immunodeficiency virus type 1 reverse transcriptase (Human immunodeficiency virus 1, UniProt Q72547)
Assay: Inhibition of RNase H activity of full length recombinant HIV1 reverse transcriptase assessed as reduction in RNA 5'-end directed cleavage using HTS3 substrate
Assay Readout: IC50

Consider the reported IC50 for these molecules:
Cc1noc(C)c1-c1ccccc1Nc1cc(=O)n(O)c(=O)n1C = Not Active
COc1cccc(-c2ccccc2Oc2cc(=O)n(O)c(=O)n2C)c1 = Not Active
COc1ccccc1-c1ccccc1Oc1cc(=O)n(O)c(=O)n1C = Not Active
Cn1c(Oc2ccccc2-c2ccccc2)cc(=O)n(O)c1=O = Not Active
Cn1c(Oc2ccc(-c3ccc(C(F)(F)F)cc3)cc2)cc(=O)n(O)c1=O = Not Active

Field: IC50. Fill in for each record below.
1. Cn1c(Oc2cccc(-c3ccc(C(F)(F)F)cc3)c2)cc(=O)n(O)c1=O
2. Cn1c(Oc2ccccc2-c2ccccc2O)cc(=O)n(O)c1=O

1: Not Active; 2: Not Active

// query IC50 value for entry Cn1c(Nc2cccc(C3CCOC3)c2)cc(=O)n(O)c1=O (stereo not drawn) Not Active

* * *

Biological target: Human immunodeficiency virus type 1 reverse transcriptase (Human immunodeficiency virus 1, UniProt Q72547)
Experiment: Inhibition of re-constituted HIV1 reverse transcriptase RNase H domain fragment
Settings: read-out: IC50
Give IC50 for every item shown.
Answers are plain numbers, in µM.

Consider the reported IC50 for these compounds:
Cn1c(Nc2ccc(-c3ccc(C(F)(F)F)cc3)cc2)cc(=O)n(O)c1=O = 2.2
Cn1c(Oc2ccc(-c3ccccc3)cc2)cc(=O)n(O)c1=O = 2.1
Cn1c(Nc2ccc(-c3ccccc3)cc2)cc(=O)n(O)c1=O = 1.7
COc1ccccc1-c1ccc(Oc2cc(=O)n(O)c(=O)n2C)cc1 = 6.2
COc1cc(OC)cc(-c2cccc(Nc3cc(=O)n(O)c(=O)n3C)c2)c1 = 1.4

Now for the compound whose IC50 we want.
// query IC50 value for entry COc1cccc(-c2cccc(Oc3cc(=O)n(O)c(=O)n3C)c2)c1 3.6

* * *

Target: Human immunodeficiency virus type 1 reverse transcriptase (Human immunodeficiency virus 1, UniProt Q72547)
Experiment: Inhibition of re-constituted HIV1 reverse transcriptase RNase H domain fragment
Settings: read-out: IC50
Assay Readout: pIC50
Numbers only, as −log10 of the molar value.

Consider the reported pIC50 for these molecules:
COc1ccc(-c2ccccc2Oc2cc(=O)n(O)c(=O)n2C)cc1 = 5.19
Cn1c(Oc2ccccc2-c2ccc(C(F)(F)F)cc2)cc(=O)n(O)c1=O = 5.29
COc1cccc(-c2cccc(Nc3cc(=O)n(O)c(=O)n3C)c2)c1 = 5.77
COc1ccc(-c2cccc(Nc3cc(=O)n(O)c(=O)n3C)c2)c(OC)c1 = 5.96
COc1ccccc1-c1ccccc1Oc1cc(=O)n(O)c(=O)n1C = 4.89

Field: pIC50. Fill in for each record below.
1. COc1cccc(-c2ccccc2Oc2cc(=O)n(O)c(=O)n2C)c1
2. COc1ccc(-c2cccc(Nc3cc(=O)n(O)c(=O)n3C)c2)cc1
3. Cc1ccc(-c2ccc(Nc3cc(=O)n(O)c(=O)n3C)cc2)cc1

4.92
5.96
5.72

Field: pIC50. Fill in for each record below.
1. Cn1c(Oc2cccc(-c3ccccc3)c2)cc(=O)n(O)c1=O
2. O=c1cc(Nc2ccc(-c3ccccc3)cc2)[nH]c(=O)n1O

1: 5.41; 2: 6.82

// query pIC50 value for entry Cn1c(Nc2ccc(-c3ccc(C#N)cc3)cc2)cc(=O)n(O)c1=O 6.00

* * *

Molecular target: UniProt Q72547
Assay: Inhibition of polymerase activity of HIV1 reverse transcriptase using poly(rA)-oligo(dT)16 and [3H]-TTP incubated for 20 mins by liquid scintillation spectrometry
Conditions: read-out: IC50
pIC50: −log10 of the molar value.
Threshold rule: pIC50 greater than or equal to 5 is Fulfilled; below that, Not fulfilled.

O=c1cc(Nc2ccc(-c3ccc(O)cc3)cc2)[nH]c(=O)n1O = Fulfilled
COc1ccccc1-c1cccc(Nc2cc(=O)n(O)c(=O)n2C)c1 = Fulfilled
Cc1ccc(-c2ccc(Nc3cc(=O)n(O)c(=O)[nH]3)cc2)cc1 = Fulfilled
Cn1c(Nc2ccc(-c3ccc(C#N)cc3)cc2)cc(=O)n(O)c1=O = Fulfilled
Cn1c(Nc2cccc(-c3cccc(C#N)c3)c2)cc(=O)n(O)c1=O = Fulfilled

Next, consider the following compound.
Please check the record Cn1c(Oc2ccccc2-c2ccc(Cl)cc2)cc(=O)n(O)c1=O and state if its pIC50 is at or above 5. Not fulfilled

* * *

Give IC50 for every item shown.
Target: Human immunodeficiency virus type 1 reverse transcriptase (Human immunodeficiency virus 1, UniProt Q72547)
Experiment: Inhibition of RNase H activity of full length recombinant HIV1 reverse transcriptase assessed as reduction in DNA 3'-end cleavage using HTS2 substrate
Details: read-out: IC50
Answers are plain numbers, in µM.

Consider the reported IC50 for these molecules:
O=c1cc(Nc2cccc(-c3ccc(F)cc3)c2)[nH]c(=O)n1O = 0.3
COc1cccc(-c2ccc(Oc3cc(=O)n(O)c(=O)n3C)cc2)c1 = 16
Cc1ccc(-c2ccc(Nc3cc(=O)n(O)c(=O)n3C)cc2)cc1 = 6.5

// query IC50 value for entry Cn1c(Oc2ccc(-c3ccccc3)cc2)cc(=O)n(O)c1=O 5.3

* * *

Molecular target: Human immunodeficiency virus type 1 reverse transcriptase (Human immunodeficiency virus 1)
Test: Inhibition of RNase H activity of full length recombinant HIV1 reverse transcriptase assessed as reduction in RNA 5'-end directed cleavage using HTS3 substrate
Details: read-out: IC50
Assay Readout: IC50 (µM)
Give bare numbers, in µM.

Field: IC50. Fill in for each record below.
1. COc1ccc(-c2cccc(Nc3cc(=O)n(O)c(=O)[nH]3)c2)c(OC)c1
2. Cn1c(Nc2cccc(-c3cccc(C#N)c3)c2)cc(=O)n(O)c1=O
3. O=c1cc(Nc2ccc(-c3ccccc3)cc2)[nH]c(=O)n1O

1. 2.4
2. 4.1
3. 0.3

Field: IC50. Fill in for each record below.
1. Cn1c(Oc2ccc(-c3ccncc3)cc2)cc(=O)n(O)c1=O
2. Cn1c(Oc2cccc(-c3ccccc3)c2)cc(=O)n(O)c1=O
3. COc1cc(OC)cc(-c2cccc(Nc3cc(=O)n(O)c(=O)n3C)c2)c1
4. COc1cc(OC)cc(-c2ccc(Nc3cc(=O)n(O)c(=O)[nH]3)cc2)c1

1: 10; 2: 15; 3: 4; 4: 0.25

Field: IC50. Fill in for each record below.
1. O=c1cc(Nc2ccc(-c3ccccc3O)cc2)[nH]c(=O)n1O
2. COc1ccccc1-c1cccc(Nc2cc(=O)n(O)c(=O)n2C)c1
3. COc1ccccc1-c1ccc(Nc2cc(=O)n(O)c(=O)n2C)cc1
4. Cn1c(Nc2ccc(-c3ccc(C#N)cc3)cc2)cc(=O)n(O)c1=O

1: 0.46; 2: 3.8; 3: 8.9; 4: 3.7

Field: IC50. Fill in for each record below.
1. Cn1c(Oc2ccccc2-c2ccc(Cl)cc2)cc(=O)n(O)c1=O
2. COc1cccc(-c2ccc(Oc3cc(=O)n(O)c(=O)n3C)cc2)c1
3. COc1ccc(-c2ccc(Oc3cc(=O)n(O)c(=O)n3C)cc2)cc1
4. COc1ccccc1-c1ccc(Oc2cc(=O)n(O)c(=O)n2C)cc1
5. Cn1c(Nc2ccc(-c3ccccc3)cc2)cc(=O)n(O)c1=O
6. COc1cccc(-c2cccc(Oc3cc(=O)n(O)c(=O)n3C)c2)c1
7. Cn1c(Oc2ccc(-c3cccc(C#N)c3)cc2)cc(=O)n(O)c1=O

1: 13; 2: 16; 3: 12; 4: 22; 5: 5.1; 6: 9.4; 7: 11
